Molecular target: human ERK-2 (Mitogen Activated Kinase 1) (Homo sapiens (Human))
Assay: ERK-2 Enzymatic Assay
Conditions: ERK-2 enzyme, 25 μM ATP; single assay or mean of multiple assays; read-out: Biological Example 1 IC50
Overview of reported pIC50 across a group of compounds:
// pIC50 is dimensionless: -log10 of concentration (M)

Examples with their reported pIC50 follow.
Input "Cn1nccc1Nc1nccc(-c2ccn3c(Cc4cccc(-c5ccccc5)n4)nnc3c2)n1" . Output pIC50: 8.82

In plain terms, "COc1ccc(Cc2nnc3cc(-c4nc(NC5CCOCC5)ncc4F)ccn23)cc1" has a documented pIC50 of 8.55

Form: compound = "COc1ccc(Cc2nnc3cc(-c4ccnc(NC5CCOCC5)n4)ccn23)cc1F" ; pIC50 = 9.05

Now look at this one.
Record Cn1nccc1Nc1nccc(-c2ccn3c(CC4CC5CCC4C5)nnc3c2)n1 (stereo not shown) . Reported pIC50: 8.62

====

Molecular target: human ERK-2 (Mitogen Activated Kinase 1) (Homo sapiens (Human), UniProt P28482)
Sequence (P28482 8-360): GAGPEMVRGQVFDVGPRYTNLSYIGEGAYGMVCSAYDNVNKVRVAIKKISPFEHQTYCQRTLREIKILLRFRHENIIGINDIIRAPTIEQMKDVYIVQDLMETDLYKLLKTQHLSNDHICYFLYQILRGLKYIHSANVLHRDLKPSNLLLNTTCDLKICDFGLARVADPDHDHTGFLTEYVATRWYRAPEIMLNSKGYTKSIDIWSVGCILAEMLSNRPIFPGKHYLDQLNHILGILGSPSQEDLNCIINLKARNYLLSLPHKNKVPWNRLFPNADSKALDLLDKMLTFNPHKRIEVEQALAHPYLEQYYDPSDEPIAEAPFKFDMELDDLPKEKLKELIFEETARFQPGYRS
Test: ERK-2 Enzymatic Assay
Assay type: biochemical
Conditions: ERK-2 enzyme, 25 μM ATP; single assay or mean of multiple assays; read-out: Biological Example 1 IC50
Listing of entries alongside the reported pIC50.
Schema: pIC50 number; meaning minus log10 of the concentration expressed in molar units.

I looked up CC(=O)NC(Cc1nnc2cc(-c3ccnc(Nc4ccnn4C)n3)ccn12)c1ccc(F)c(Cl)c1 (centres unmarked) [Example 467] and its pIC50 for human ERK-2 (Mitogen Activated Kinase 1) (Homo sapiens (Human), UniProt P28482) was 8.74

Reported human ERK-2 (Mitogen Activated Kinase 1) (Homo sapiens (Human), UniProt P28482) pIC50 for item Fc1ccc(Cc2nnc3cc(-c4ccnc(NC5CCOCC5)n4)ccn23)cc1 [Example 402] was 9.22

The observed pIC50 for c1cc(-c2ccn3c(C4CNCCO4)nnc3c2)nc(NC2CCOCC2)n1 (centres unmarked) [Example 387] when tested with human ERK-2 (Mitogen Activated Kinase 1) (Homo sapiens (Human), UniProt P28482) stands at 6.93

Value sought: pIC50, system human ERK-2 (Mitogen Activated Kinase 1) (Homo sapiens (Human), UniProt P28482), item CCOCCc1nnc2cc(-c3ccnc(Nc4ccnn4C)n3)ccn12 [Example 111] . Result: 8.54

Entry CO[C@@H](c1ccccc1)c1nnc2cc(-c3ccnc(NC4CCOCC4)n3)ccn12 [Example 195] under human ERK-2 (Mitogen Activated Kinase 1) (Homo sapiens (Human), UniProt P28482) had pIC50 of 7.60

Measured on human ERK-2 (Mitogen Activated Kinase 1) (Homo sapiens (Human), UniProt P28482), Cn1nccc1Nc1cc(-c2ccn3c(CC(C)(C)C)nnc3c2)ccn1 [Example 279] has a documented pIC50 of 9.22

Considering CCC=Cc1nnc2cc(-c3ccnc(Nc4ccnn4C)n3)ccn12 (stereo in doubt) [Example 258] , its pIC50 with human ERK-2 (Mitogen Activated Kinase 1) (Homo sapiens (Human), UniProt P28482) was recorded as 8.24

====

Biological target: human ERK-2 (Mitogen Activated Kinase 1) (Homo sapiens (Human), UniProt P28482)
Test: ERK-2 Enzymatic Assay
Conditions: ERK-2 enzyme, 25 μM ATP; single assay or mean of multiple assays; read-out: Biological Example 1 IC50
ATTRIBUTE_MEASURED: IC50 (nM)
Note: unit nM is implicit; provide only the numeric part.

Lab note: "COc1ccc(Cc2nnc3cc(-c4ccnc(Nc5ccnn5C)n4)ccn23)cc1F" gave IC50 of 3.3

IC50 for "Cn1nccc1Nc1cc(-c2ccn3c(CC4CC4)nnc3c2)ccn1" is 0.4

Notebook: Cn1nccc1Nc1nccc(-c2ccn3c(CC(C)(O)C4CC4)nnc3c2)n1 (centres unmarked) , IC50 read as 661

Per the record, "COc1ccc(Cc2nnc3cc(-c4ccnc(NC5CCOCC5)n4)ccn23)cn1" has IC50 of 0.9

Notebook: O=C(c1c(F)cccc1F)N1CCOC(c2nnc3cc(-c4ccnc(NC5CCOCC5)n4)ccn23)C1 (centres unmarked) , IC50 read as 7.5

For "Cn1nccc1Nc1nccc(-c2ccn3c(CC4CCC(F)(F)CC4)nnc3c2)n1" the compound record lists IC50 as 0.9

Item: "Cn1nccc1Nc1cc(-c2ccn3c([C@H](O)Cc4ccccc4)nnc3c2)ccn1" | IC50: 0.9

---
Form field IC50, entry "Fc1ccccc1Cc1nnc2cc(-c3ccnc(NC4CCOCC4)n3)ccn12" : 3

====

Molecular target: human ERK-2 (Mitogen Activated Kinase 1) (Homo sapiens (Human))
Test: ERK-2 Enzymatic Assay
Conditions: ERK-2 enzyme, 25 μM ATP; single assay or mean of multiple assays; read-out: Biological Example 1 IC50
ATTRIBUTE_MEASURED: log10(IC50) (log10 of the value in nM)
All values: base-10 log of IC50 in nM.

The value of log10(IC50) measured for the compound CN1CC(Oc2c(F)cccc2F)CC(c2nnc3cc(-c4ccnc(Nc5ccnn5C)n4)ccn23)C1 (stereo not drawn) turned out to be 0.53

The compound listed as CN1C(=O)CC(c2ccccc2)C1c1nnc2cc(-c3ccnc(NC4CCOCC4)n3)ccn12 (stereo not drawn) has a reported log10(IC50) of 2.23

Quick note, log10(IC50) for "Cn1nccc1Nc1nccc(-c2ccn3c(Cc4cc(C5CC5)ccn4)nnc3c2)n1" landed at -0.10

Looking up "COc1ccc(Cc2nnc3cc(-c4ccnc(Nc5ccnn5C)n4)ccn23)cc1" , I see its log10(IC50) listed as -0.10

Record "Cn1nccc1Nc1nccc(-c2ccn3c(Cc4ccc(F)cc4F)nnc3c2)n1" , field log10(IC50): 0.45

Next:
// recorded log10(IC50) for "Cn1nccc1Nc1nccc(-c2ccn3c([C@H](O)c4cccc(Cl)c4)nnc3c2)n1" : 0.52

For this compound ( "Cn1nccc1Nc1nccc(-c2ccn3c(CS(=O)(=O)c4ccccc4)nnc3c2)n1" ), measured log10(IC50) is 0.26

The measured log10(IC50) associated with "Cn1nccc1Nc1nccc(-c2ccn3c(CSC4CCCC4)nnc3c2)n1" reads 0.54

// log10(IC50) value for "Cn1nccc1Nc1nccc(-c2ccn3c(Cc4cccc(Cl)c4Cl)nnc3c2)n1" : -0.30

====

Biological target: human ERK-2 (Mitogen Activated Kinase 1) (Homo sapiens (Human), UniProt P28482)
Assay: ERK-2 Enzymatic Assay
Conditions: ERK-2 enzyme, 25 μM ATP; single assay or mean of multiple assays; read-out: Biological Example 1 IC50
Reported IC50 values for the following molecules.
Could you give me the number in nM? Just the number is fine.

Consider the reported IC50 for these molecules:
response.value for c1cc(-c2ccn3c(C4CCCNC4)nnc3c2)nc(NC2CCOCC2)n1 (stereo not shown) [Example 131] (field: IC50) = 224

The molecule identified as Fc1c(-c2ccnc(NC3CCOCC3)c2)ccn2c(Cc3ccc(Cl)cc3)nnc12 [Example 112] registered its IC50 at 17

Please fill in: IC50 reported for Cn1nccc1Nc1nccc(-c2ccn3c(CC45CC6CC(CC(C6)C4)C5)nnc3c2)n1 [Example 379] = 2.4

Next:
Summary for this molecule, Cn1nccc1Nc1nccc(-c2ccn3c(Cc4cccc(F)c4F)nnc3c2)n1 [Example 51] : IC50 is 2.6

====

Biological target: human ERK-2 (Mitogen Activated Kinase 1) (Homo sapiens (Human))
Experiment: ERK-2 Enzymatic Assay
Settings: ERK-2 enzyme, 25 μM ATP; single assay or mean of multiple assays; read-out: Biological Example 1 IC50
Catalogue of IC50 readings, one per entry.
Express your answer in nM, writing the number without its unit.

Here is how some compounds turned out for IC50.
Sample Cn1nccc1Nc1cc(-c2ccn3c(CC4(C(F)(F)F)CC4)nnc3c2)ccn1 [Example 396] ; IC50 observed: 3.3

Field IC50 (entry CC(C)Cc1nnc2cc(-c3ccnc(Nc4ccnn4C)n3)ccn12 [Example 169] ) reads 2.7

Input Cn1nccc1Nc1nccc(-c2ccn3c(C4OCCc5ccccc54)nnc3c2)n1 (centres unmarked) [Example 192] . Output IC50: 6

Entry under test: Cn1nccc1Nc1cc(-c2ccn3c(Cc4ccc(F)cc4F)nnc3c2)ccn1 [Example 84] . Its IC50 was 3.2

Continuing:
Entry Cn1nccc1Nc1nccc(-c2ccn3cnnc3c2)n1 [Example 411] — recorded IC50 = 11

====

Parameter IC50: see the listing below.
Molecular target: human ERK-2 (Mitogen Activated Kinase 1) (Homo sapiens (Human))
Experiment: ERK-2 Enzymatic Assay
Details: ERK-2 enzyme, 25 μM ATP; single assay or mean of multiple assays; read-out: Biological Example 1 IC50
Give a bare numeral; the unit nM is implied.

Worked cases, IC50 given:
Lab note: measured IC50 of COc1ncc(F)cc1CN1CCCC(c2nnc3cc(-c4ccnc(NC5CCOCC5)n4)ccn23)C1 (stereo not shown) was 197

Quick note, IC50 for "CCOc1ccc(Cc2nnc3cc(-c4ccnc(Nc5ccnn5C)n4)ccn23)cn1" landed at 0.8

Field IC50 (entry "Cc1cc(-c2nnc3cc(-c4ccnc(Nc5cnn(C)c5)n4)ccn23)nn1-c1ccc(F)cc1" ) reads 135

get_value(item= "CC[C@H](C)Cc1nnc2cc(-c3ccnc(Nc4ccnn4C)n3)ccn12" , readout=IC50) returns 2.8

get_value(item= CN(C)C(c1ccc(F)cc1)c1nnc2cc(-c3ccnc(Nc4ccnn4C)n3)ccn12 (stereo not shown) , readout=IC50) returns 5.4

So for "Cn1nccc1Nc1nccc(-c2ccn3c(C(=O)N4CCCC4)nnc3c2)n1" , the logged IC50 turned out to be 172

More entries:
Short answer for COC(Cc1nnc2cc(-c3ccnc(Nc4ccnn4C)n3)ccn12)C(F)(F)F (stereo not shown) : IC50 was 3.4

For record "c1ccc(Cc2nnc3cc(-c4ccnc(NC5CCOCC5)n4)ccn23)nc1" the listed IC50 is 0.8

// IC50 lookup, compound = "Cn1nccc1Nc1nccc(-c2ccn3c(CC(C)(C)C)nnc3c2)n1" , result: 2.8

Reported IC50 of "Cc1ccnc(Cc2nnc3cc(-c4ccnc(Nc5ccnn5C)n4)ccn23)c1" : 0.9
